Tested on: ATF4 luciferase reporter in HEK293T cells
Test: ATF4-Luc assay (in vitro model of VWMD)
Type: cell-based, human
Details: Homo sapiens, HEK-293T, 7 h, HEK293T cells carrying the ATF4 luciferase reporter, 1 μg/mL tunicamycin, One Glo luminescence
Protocol: In order to test exemplary compounds of the invention in a cellular context, a stable VWMD cell line was first constructed. […] HEK293T cells carrying the ATF4 luciferase reporter were plated on polylysine coated 384-well plates (Greiner Bio-one) at 30,000 cells per well. […] Luminescence was measured using One Glo (Promega) as specified by the manufacturer. […]
measured quantity: EC50

Data request: For the compound O=C(NC12CC(n3cc(OCCOC(F)(F)F)cn3)(C1)C2)[C@H]1C[C@@H](O)c2cc(Cl)c(Cl)cc2O1 [Compound 442] , report EC50.
Data returned: < 10 nM

Data request: For the compound O=C(NC12CC(n3cc4c(n3)CN(CCOC(F)(F)F)C4)(C1)C2)[C@H]1C[C@@H](O)c2cc(Cl)c(F)cc2O1 [Compound 512] , report EC50.
Data returned: 10 to 50 nM

Data request: For the compound O=C(NC12CCC(n3cc(C(=O)N4CC[C@H](OC(F)(F)F)C4)cn3)(CC1)CC2)[C@H]1C[C@@H](O)c2cc(Cl)ccc2O1 [Compound 331] , report EC50.
Data returned: < 10 nM

Data request: For the compound O=C(NC12CC(n3cc(C(=O)N4CC(COC(F)F)C4)cn3)(C1)C2)[C@H]1C[C@@H](O)c2cc(Cl)ccc2O1 [Compound 348] , report EC50.
Data returned: 50 to 250 nM

Data request: For the compound O=C(COc1ccc(Cl)c(F)c1)NC12CCC(n3cc(OCCOC(F)(F)F)cn3)(C1)C2 [Compound 595] , report EC50.
Data returned: 250 to 500 nM

Data request: For the compound O=C(CO[C@H]1C[C@@H](OC(F)(F)F)C1)NC12CC(NC(=O)[C@H]3CC(O)c4cc(Cl)ccc4O3)(C1)C2 (single isomer, unassigned) [Compound 293] , report EC50.
Data returned: < 10 nM
